Test system: N-acetylhexosamine oxidase
Assay: Activity inhibition of the enzyme by metallic ions or inhibitors
Type: biochemical, Pseudomonas sp. No. 15-1
Settings: tris-hydrochloric acid buffer solution of pH 7.5, 1.8mM metallic ion or inhibitor
Kindly supply the reported Residual activity (%) values for the records listed here.
Provide only the numeric value, understood in %.

stdin: Which Residual activity (%) is listed for `O=S(=O)([O-])[O-].[Mg+2]` ?
stdout: 86

stdin: Which Residual activity (%) is listed for `[N-]=[N+]=[N-].[Na+]` ?
stdout: 103

stdin: Which Residual activity (%) is listed for O=C(O)c1cc[c]([Hg][Cl])cc1 [PCMB, pChloromercurybenzoate] ?
stdout: 67

stdin: Which Residual activity (%) is listed for CCCCCCCCCCCCOS(=O)(=O)[O-].[Na+] [SDS, Sodium dodecylsulfate] ?
stdout: 87

stdin: Which Residual activity (%) is listed for `O=C(O)CF` ?
stdout: 107

stdin: Which Residual activity (%) is listed for `O=S(=O)([O-])[O-].[Fe+2]` ?
stdout: 15

stdin: Which Residual activity (%) is listed for `c1ccc(-c2ccccn2)nc1` ?
stdout: 106

stdin: Which Residual activity (%) is listed for `O=S(=O)([O-])[O-].[Zn+2]` ?
stdout: 2

stdin: Which Residual activity (%) is listed for `O=S(=O)([O-])[O-].[Mn+2]` ?
stdout: 84

stdin: Which Residual activity (%) is listed for `CC(=O)[O-].CC(=O)[O-].[Pb+2]` ?
stdout: 42

stdin: Which Residual activity (%) is listed for `O=S(=O)([O-])[O-].[Cu+2]` ?
stdout: 74

stdin: Which Residual activity (%) is listed for `O=S(=O)([O-])[O-].[Ni+2]` ?
stdout: 64

stdin: Which Residual activity (%) is listed for `O=S(=O)([O-])[O-].[Co+2]` ?
stdout: 75

stdin: Which Residual activity (%) is listed for `c1cnc2c(c1)ccc1cccnc12` ?
stdout: 81

stdin: Which Residual activity (%) is listed for `NC(=O)CI` ?
stdout: 90

stdin: Which Residual activity (%) is listed for `[Ca+2].[Cl-].[Cl-]` ?
stdout: 91

---

System: N-acetylhexosamine oxidase
Assay: Activity inhibition of the enzyme by metallic ions or inhibitors
Assay type: biochemical, Pseudomonas sp. No. 15-1
Settings: tris-hydrochloric acid buffer pH 7.5, 1.8mM
Test Readout: Inhibition of enzyme activity (in words)

| Chemical Smiles | Tested Target | Test Readout | Result |
| --- | --- | --- | --- |
| O=S(=O)([O-])[O-].[Fe+2] | N-acetylhexosamine oxidase | Inhibition of enzyme activity (in words) | inhibited greatly |
| O=S(=O)([O-])[O-].[Zn+2] | N-acetylhexosamine oxidase | Inhibition of enzyme activity (in words) | inhibited greatly |
| O=S(=O)([O-])[O-].[Ni+2] | N-acetylhexosamine oxidase | Inhibition of enzyme activity (in words) | considerably |
| CC(=O)[O-].CC(=O)[O-].[Pb+2] | N-acetylhexosamine oxidase | Inhibition of enzyme activity (in words) | considerably |
